molecular target: HPK1 (Homo sapiens); construct: A HiBiT tag was introduced by CRISPR on the N terminus of HPK1 in Jurkat cells; host or cells: Jurkat cells (ATCC TIB-152), monoclonal line with CRISPR knock-in of HiBiT at the endogenous HPK1 locus; assay: HPK1 Cellular HiBit Degradation Assay; format: cell-based; settings: Jurkat, HiBiT HPK1 Jurkat cells, 24 hrs; maximum degradation vs DMSO vehicle control; read-out: Dmax Category
Sequence (Q92918 whole entry): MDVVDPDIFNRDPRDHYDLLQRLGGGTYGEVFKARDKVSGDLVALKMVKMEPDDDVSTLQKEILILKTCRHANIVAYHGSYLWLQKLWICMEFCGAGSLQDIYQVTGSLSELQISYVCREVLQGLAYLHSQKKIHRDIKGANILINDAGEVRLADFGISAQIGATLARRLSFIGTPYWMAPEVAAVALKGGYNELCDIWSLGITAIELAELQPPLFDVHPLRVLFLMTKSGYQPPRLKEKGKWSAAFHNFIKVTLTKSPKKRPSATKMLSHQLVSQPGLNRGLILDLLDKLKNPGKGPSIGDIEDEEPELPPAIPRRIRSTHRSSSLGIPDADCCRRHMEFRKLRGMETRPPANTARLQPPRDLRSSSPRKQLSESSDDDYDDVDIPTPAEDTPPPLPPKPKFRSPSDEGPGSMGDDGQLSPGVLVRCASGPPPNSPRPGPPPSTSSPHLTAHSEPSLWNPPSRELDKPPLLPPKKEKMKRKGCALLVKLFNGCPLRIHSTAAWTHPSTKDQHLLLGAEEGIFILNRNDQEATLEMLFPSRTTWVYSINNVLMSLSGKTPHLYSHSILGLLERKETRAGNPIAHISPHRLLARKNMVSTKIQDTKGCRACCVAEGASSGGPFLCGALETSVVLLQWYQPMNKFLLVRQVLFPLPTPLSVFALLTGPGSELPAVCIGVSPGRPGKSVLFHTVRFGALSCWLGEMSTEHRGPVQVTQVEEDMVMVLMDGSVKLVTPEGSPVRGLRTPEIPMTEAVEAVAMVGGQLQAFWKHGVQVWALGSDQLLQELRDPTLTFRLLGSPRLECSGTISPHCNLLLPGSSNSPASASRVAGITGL
attributeMeasured: Dmax

{"compound": "CC(C)n1cnc2cc(-c3ccc4c(c3)N([C@H]3C[C@@H](N5CCCCC5)C3)C(=O)C43CCN(C(=O)C4(C)CCN(C(=O)[C@H]5CC[C@H](Oc6ccc(N7CCC(=O)NC7=O)cn6)CC5)CC4)CC3)nc(Nc3ccccc3F)c21 [Example 108]", "targetDesc": "HPK1 (Homo sapiens)", "attributeMeasured": "Dmax", "result": "70 to 85%"}
{"compound": "CC(C(=O)N1CCN(C(=O)C2CCN(c3ccc(C4CCC(=O)NC4=O)cn3)CC2)CC1)N1CCC2(CC1)C(=O)N([C@H]1C[C@@H](N3CCCCC3)C1)c1cc(-c3cc4ncn(C(C)C)c4c(NC4CC4)n3)ccc12 (some centres unmarked) [Example 172]", "targetDesc": "HPK1 (Homo sapiens)", "attributeMeasured": "Dmax", "result": "> 85%"}
{"compound": "CC(C)n1cnc2cc(-c3ccc4c(c3)N([C@H]3C[C@@H](N5CCCCC5)C3)C(=O)C43CCN(C(=O)C4CCN(C(=O)C5CCN(c6ccc(N7CCC(=O)NC7=O)cc6)CC5)CC4)CC3)nc(Nc3ccccc3F)c21 [Example 70]", "targetDesc": "HPK1 (Homo sapiens)", "attributeMeasured": "Dmax", "result": "> 85%"}
{"compound": "CC(C)n1cnc2cc(-c3ccc4c(c3)N([C@H]3C[C@@H](N5CCCCC5)C3)C(=O)C43CCN(C(=O)C4(C)CCN(C(=O)C5CCN(c6ccc(C7CCC(=O)NC7=O)cn6)CC5)CC4)CC3)nc(Oc3ccccc3F)c21 (some centres unmarked) [Example 164]", "targetDesc": "HPK1 (Homo sapiens)", "attributeMeasured": "Dmax", "result": "> 85%"}
{"compound": "CC(C)n1cnc2cc(-c3ccc4c(c3)N([C@H]3C[C@@H](N5CCCCC5)C3)C(=O)C43CCN(C(=O)[C@@H]4CCN(C(=O)[C@H]5CC[C@H](Nc6cncc(C7CCC(=O)NC7=O)c6)CC5)C4)CC3)nc(Nc3ccccc3F)c21 (mixture of isomers) [Example 12]", "targetDesc": "HPK1 (Homo sapiens)", "attributeMeasured": "Dmax", "result": "70 to 85%"}
{"compound": "CC(C)n1cnc2cc(-c3ccc4c(c3)N([C@H]3C[C@@H](N5CCCCC5)C3)C(=O)C43CCN(C(=O)C4CCN(C(=O)C5CCN(c6ccc(C7CCC(=O)NC7=O)cn6)CC5)CC4)CC3)nc(Nc3ccncc3F)c21 (mixture of isomers) [Example 77]", "targetDesc": "HPK1 (Homo sapiens)", "attributeMeasured": "Dmax", "result": "70 to 85%"}
{"compound": "CC(C)n1cnc2cc(-c3ccc4c(c3)N([C@H]3C[C@@H](N5CCCCC5)C3)C(=O)C43CCN(C(=O)C4CCN(C(=O)C5CCN(c6ccc(C7CCC(=O)NC7=O)cn6)CC5)C5(CCC5)C4)CC3)nc(NC3CC3)c21 (mixture of isomers) [Example 270]", "targetDesc": "HPK1 (Homo sapiens)", "attributeMeasured": "Dmax", "result": "70 to 85%"}
{"compound": "CC(C)n1cnc2cc(-c3ccc4c(c3)N([C@H]3C[C@@H](N5CCCCC5)C3)C(=O)C43CCN(CC(=O)N(C)C4CCN(C(=O)C5CCN(c6ccc(C7CCC(=O)NC7=O)cn6)CC5)CC4)CC3)nc(NC3CC3)c21 (some centres unmarked) [Example 200]", "targetDesc": "HPK1 (Homo sapiens)", "attributeMeasured": "Dmax", "result": "> 85%"}
